Target Under Test: Cyclin-dependent kinase 5/CDK5 activator 1 (Homo sapiens, UniProt Q00535)
Sequence (Q00535 whole entry): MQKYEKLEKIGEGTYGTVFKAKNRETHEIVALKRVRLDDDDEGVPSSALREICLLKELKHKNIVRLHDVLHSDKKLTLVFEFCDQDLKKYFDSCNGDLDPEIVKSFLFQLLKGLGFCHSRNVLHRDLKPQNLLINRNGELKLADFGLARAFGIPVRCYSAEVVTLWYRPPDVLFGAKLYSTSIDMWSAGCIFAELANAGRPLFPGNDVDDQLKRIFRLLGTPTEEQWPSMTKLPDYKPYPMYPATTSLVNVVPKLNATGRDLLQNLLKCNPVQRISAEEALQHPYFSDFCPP
Sequence (Q15078 whole entry, further chain): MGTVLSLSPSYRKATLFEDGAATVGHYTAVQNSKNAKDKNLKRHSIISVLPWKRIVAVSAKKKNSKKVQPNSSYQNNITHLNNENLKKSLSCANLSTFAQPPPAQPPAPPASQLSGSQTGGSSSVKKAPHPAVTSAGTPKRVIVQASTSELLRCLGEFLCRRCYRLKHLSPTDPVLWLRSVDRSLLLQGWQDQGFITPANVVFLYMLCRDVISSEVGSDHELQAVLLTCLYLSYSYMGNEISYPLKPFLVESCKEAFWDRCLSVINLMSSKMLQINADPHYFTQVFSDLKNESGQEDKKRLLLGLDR
Experiment Description: Inhibition of Tau Protein Kinase II (TPK II)
Recorded Endpoint: Ki (nM)
Give bare numbers, in nM.

Enquiry: For the compound "O=C(Nc1csc(Cc2c(Cl)cccc2Cl)n1)NN1CCOCC1" , give its measured Ki value.
Return: 500

###

Target Under Test: Cyclin-dependent kinase 5/CDK5 activator 1 (Homo sapiens, UniProt Q00535)
Experiment Description: Ability to inhibit Cyclin-dependent kinase 5-p35.
Binary label based on IC50 with cut-off 10 µM: below gives condition met, not below gives condition not met.

# example entries with known answers
Cc1cccc(-c2nc(NC(=O)NN3CCOCC3)cs2)c1
condition not met
O=C(Nc1csc(Cc2c(Cl)cccc2Cl)n1)NN(Cc1ccccc1)Cc1ccccc1
condition not met
O=C(NOCc1c(F)c(F)c(F)c(F)c1F)Nc1csc(Cc2c(Cl)cccc2Cl)n1
condition not met
CNNC(=O)Nc1csc(Cc2c(Cl)cccc2Cl)n1
condition not met
O=C(Nc1csc(-c2cccs2)n1)NN1CCOCC1
condition not met
C=CCONC(=O)Nc1csc(Cc2c(Cl)cccc2Cl)n1
condition met
O=C(NOc1ccccc1)Nc1csc(Cc2ccccc2)n1
condition not met
O=C(Nc1csc(COc2ccccc2)n1)NN1CCOCC1
condition not met
O=C(Nc1csc(Cc2c(Cl)cccc2Cl)n1)NN1CCOCC1
condition met

Okay, next one:
Enquiry: Criterion: IC50 strictly below 10 µM. Is it met by "O=C(NOc1ccccc1)Nc1csc(-c2ccccc2)n1" ?
Return: condition met

###

Target Under Test: Cyclin-dependent kinase 5/CDK5 activator 1 (Homo sapiens)
Experiment Description: Ability to inhibit Cyclin-dependent kinase 5-p35.
Assay type: protein-complex assay
Give measured IC50 for each item. Keep answers brief.

Worked examples, 3 compounds total:
CC(C)(C)ONC(=O)Nc1csc(Cc2c(Cl)cccc2Cl)n1
1 µM
O=C(Nc1csc(Cc2c(Cl)cccc2Cl)n1)NN1CCCC1
3 µM
O=C(Nc1csc(CSc2ccccc2)n1)NN1CCOCC1
30 µM

I have 5 compounds here; please give me IC50 for each one.
1. COC[C@H]1CCCN1NC(=O)Nc1csc(Cc2c(Cl)cccc2Cl)n1
2. CN(C)NC(=O)Nc1csc(Cc2c(Cl)cccc2Cl)n1
3. O=C(Nc1csc(-c2ccc(Cl)cc2)n1)NN1CCOCC1
4. O=C(NOC1CCCCO1)Nc1csc(Cc2c(Cl)cccc2Cl)n1 (configuration not stated)
5. O=C(Nc1csc(-c2ccccc2Cl)n1)NN1CCOCC1

Return:
1: > 100 µM; 2: 4 µM; 3: > 100 µM; 4: 3 µM; 5: 30 µM

I have 3 compounds here; please give me IC50 for each one.
1. CCc1nc(NC(=O)NN2CCOCC2)cs1
2. CCONC(=O)Nc1csc(Cc2c(Cl)cccc2Cl)n1
3. O=C(Nc1csc(Cc2ccccc2)n1)NN1CCOCC1

Return:
1. > 100 µM
2. 5 µM
3. 55 µM

Enquiry: For the compound "CN(NC(=O)Nc1csc(Cc2c(Cl)cccc2Cl)n1)c1ccccc1" , give its measured IC50 value.
Return: 10 µM

###

Target Under Test: Cyclin-dependent kinase 2/cyclin A (Homo sapiens)
Experiment Description: Ability to inhibit cyclin-dependent kinase 2-cyclin A.
Recorded Endpoint: log10 IC50 (log10 of the value in µM)
# values: log10(IC50), units µM

Worked examples, 5 molecules total:
O=C(Nc1csc(-c2ccccc2Cl)n1)NN1CCOCC1
1.00
CS(=O)(=O)Cc1nc(NC(=O)NOc2ccccc2)cs1
1.95
O=C(Nc1csc(Cc2c(Cl)cccc2Cl)n1)NN1CCCCC1
1.48
CN(C)NC(=O)Nc1csc(Cc2c(Cl)cccc2Cl)n1
1.00
O=C(NOC1CCCCO1)Nc1csc(Cc2c(Cl)cccc2Cl)n1 (stereo not given)
1.95

I have 2 molecules here; please give me log10 IC50 for each one.
1. C=CCONC(=O)Nc1csc(Cc2c(Cl)cccc2Cl)n1
2. O=C(Nc1csc(-c2ccccc2)n1)NN1CCOCC1

Return:
1.60
0.78

I have 5 molecules here; please give me log10 IC50 for each one.
1. CN(NC(=O)Nc1csc(Cc2c(Cl)cccc2Cl)n1)c1ccccc1
2. CC(C)(C)ONC(=O)Nc1csc(Cc2c(Cl)cccc2Cl)n1
3. O=C(NOc1ccccc1)Nc1csc(-c2ccccc2)n1
4. O=C(Nc1csc(Cc2c(Cl)cccc2Cl)n1)NN1CCCC1
5. O=C(Nc1csc(CS(=O)(=O)c2ccccn2)n1)NN1CCOCC1

Return:
1. 1.78
2. 1.18
3. 1.54
4. 1.30
5. 0.70

I have 6 molecules here; please give me log10 IC50 for each one.
1. COc1ccc(OCc2nc(NC(=O)NN3CCOCC3)cs2)cc1
2. CCONC(=O)Nc1csc(Cc2c(Cl)cccc2Cl)n1
3. O=C(Nc1csc(Cc2c(Cl)cccc2Cl)n1)NN1CCCCCC1
4. Cc1cccc(-c2nc(NC(=O)NN3CCOCC3)cs2)c1
5. O=C(Nc1csc(CSc2ccccc2)n1)NN1CCOCC1
6. O=C(Nc1csc(-c2cccs2)n1)NN1CCOCC1

Return:
1. 1.30
2. 1.30
3. 1.85
4. 1.30
5. 1.48
6. 1.00

Enquiry: For the molecule "O=C(Nc1csc(Cc2c(Cl)cccc2Cl)n1)NN1CCOCC1" , give its measured log10 IC50 value.
Return: 1.00
